SYSTEM_UNDER_TEST: Aspartyl aminopeptidase (Plasmodium falciparum (isolate 3D7))
ASSAY_COMMENT: inhibition of purified P. falciparum M18AAP – biochemical, fluorescence, powder samples, assay provider, late-stage follow-up (AID 492974)
CONDITION_NOTES: recombinant PfM18AAP, H-Glu-NHMec fluorogenic substrate; at 5 µM; hits give high values
Lab note: compare inhibition against 10%. Equal or greater, write 1 (yes). Smaller, write 0 (no).

INSERT INTO results (compound, qualitative_label) VALUES
  ('Oc1ccc(CCNc2c3ccccc3nc3ccccc23)cc1O', '1 (yes)'),
  ('O=C(COc1ccccc1C(=O)N/N=C/c1ccc(O)c(O)c1)N/N=C/c1ccc(O)c(O)c1', '1 (yes)'),
  ('CCN(CC)S(=O)(=O)c1ccc(C(=O)Nn2cnnc2)cc1', '1 (yes)'),
  ('O=C(CSc1nnc(-c2ccccc2)o1)Nn1cnnc1', '1 (yes)'),
  ('O=c1c2c([N+](=O)[O-])cc([N+](=O)[O-])cc2sn1Cc1ccccc1', '1 (yes)'),
  ('Oc1ccc(-c2csc(-c3cccnc3)n2)cc1O', '1 (yes)'),
  ('O=C(Nn1cnnc1)c1ccccc1-c1ccccc1', '1 (yes)'),
  ('O=C(Nc1ccc(Br)cc1Cl)Nn1cnnc1', '1 (yes)'),
  ('Cc1cc(=O)[nH]c(SCC(=O)c2ccc(O)c(O)c2)n1', '0 (no)'),
  ('O=C(CNC(=O)c1ccccc1)NCCc1ccc(O)c(O)c1', '1 (yes)'),
  ('COc1ccc(NC(=O)NNC(=O)CCc2ccc(O)c(O)c2)cc1OC', '1 (yes)'),
  ('O=C(Nc1ccc(Cl)cc1Cl)Nn1cnnc1', '1 (yes)'),
  ('Oc1ccc(/C=C/c2cc(O)cc(O)c2)cc1', '1 (yes)'),
  ('Oc1cc(O)c2c(c1)O[C@H](c1ccc(O)c(O)c1)[C@H](O)C2', '1 (yes)'),
  ('CN1C(=O)N(c2cccc3ccccc23)C(n2cncn2)C1(C)C (stereo unspecified)', '0 (no)'),
  ('CC1=NNC(=O)/C1=C\c1cn(-c2ccccc2)nc1-c1ccc(F)cc1', '0 (no)'),
  ('O=C(Nn1cnnc1)c1csc2ccccc12', '1 (yes)'),
  ('COc1cc([N+](=O)[O-])ccc1NC(=S)Nn1cnnc1', '1 (yes)'),
  ('CN1CCc2cccc3c2[C@@H]1Cc1ccc(O)c(O)c1-3', '1 (yes)'),
  ('O=C(O)c1cn[nH]c1-n1cnnn1', '0 (no)'),
  ('CC(C)n1c(SCC(=O)Nc2nncs2)nnc1-c1ccco1', '0 (no)'),
  ('O=C(NC(=S)Nn1cnnc1)c1ccccc1Br', '1 (yes)'),
  ('O=c1[nH]c(=S)[nH]c(O)c1/C=C1\C=c2ccccc2=N1', '1 (yes)'),
  ('COc1ccc(C(=O)n2cnnc2N)cc1', '0 (no)'),
  ('O=C(O)CSc1ncn[nH]1', '0 (no)'),
  ('COC(=O)c1cc(C(=O)Nn2cnnc2)cc([N+](=O)[O-])c1', '1 (yes)'),
  ('O=c1[nH]c(CSc2ncn[nH]2)nc2ccccc12', '0 (no)'),
  ('O=C(CSc1nn(-c2ccccc2)c(=S)s1)Nn1cnnc1', '1 (yes)');
